# IC50 per entry
Target: SIK3 (Homo sapiens, UniProt Q9Y2K2)
Construct: purchased SignalChem S12-11G-100
Sequence (Q9Y2K2 whole entry): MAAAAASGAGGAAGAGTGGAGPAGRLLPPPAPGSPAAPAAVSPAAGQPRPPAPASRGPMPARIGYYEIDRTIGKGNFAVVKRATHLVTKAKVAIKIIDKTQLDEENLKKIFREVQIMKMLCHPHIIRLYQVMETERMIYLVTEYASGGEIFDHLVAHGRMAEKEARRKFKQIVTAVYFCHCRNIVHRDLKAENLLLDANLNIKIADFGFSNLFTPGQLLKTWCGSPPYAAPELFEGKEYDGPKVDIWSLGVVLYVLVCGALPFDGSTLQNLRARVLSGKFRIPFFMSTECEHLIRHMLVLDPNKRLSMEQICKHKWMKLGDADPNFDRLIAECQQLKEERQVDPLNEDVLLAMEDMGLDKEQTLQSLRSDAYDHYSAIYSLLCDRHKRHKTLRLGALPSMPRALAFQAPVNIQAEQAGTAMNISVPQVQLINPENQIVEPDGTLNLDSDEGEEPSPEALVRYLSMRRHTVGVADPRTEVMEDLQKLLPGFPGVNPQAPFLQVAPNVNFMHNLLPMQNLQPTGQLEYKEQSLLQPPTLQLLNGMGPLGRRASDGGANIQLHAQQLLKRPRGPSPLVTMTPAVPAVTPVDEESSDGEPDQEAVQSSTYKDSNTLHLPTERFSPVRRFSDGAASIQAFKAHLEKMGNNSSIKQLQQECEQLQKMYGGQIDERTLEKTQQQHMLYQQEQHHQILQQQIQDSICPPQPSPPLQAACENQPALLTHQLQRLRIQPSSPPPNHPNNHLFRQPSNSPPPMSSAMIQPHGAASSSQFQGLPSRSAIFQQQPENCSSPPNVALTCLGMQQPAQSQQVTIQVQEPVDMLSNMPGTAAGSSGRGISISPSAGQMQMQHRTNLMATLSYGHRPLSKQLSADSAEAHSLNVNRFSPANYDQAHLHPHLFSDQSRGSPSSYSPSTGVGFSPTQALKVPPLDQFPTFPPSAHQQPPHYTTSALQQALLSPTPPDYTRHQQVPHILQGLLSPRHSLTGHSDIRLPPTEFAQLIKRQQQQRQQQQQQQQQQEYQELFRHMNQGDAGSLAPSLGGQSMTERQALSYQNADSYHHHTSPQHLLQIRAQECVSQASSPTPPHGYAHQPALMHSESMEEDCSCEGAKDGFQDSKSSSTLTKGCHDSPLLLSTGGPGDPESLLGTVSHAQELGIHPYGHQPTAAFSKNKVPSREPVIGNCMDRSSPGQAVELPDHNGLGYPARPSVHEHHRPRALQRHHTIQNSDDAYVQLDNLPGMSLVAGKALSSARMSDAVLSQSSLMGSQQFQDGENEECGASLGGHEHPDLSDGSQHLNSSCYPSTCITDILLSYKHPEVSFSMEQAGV
Experiment: biochemical
Method: The principle of the ^33P radioactive kinase assay consists in measuring the incorporated ^33P into the substrate AMARA peptide when phosphorylated by SIK1, SIK2 or SIK3 using [^33P]-g-ATP, which correlates with kinase activity. […] After harvesting the kinase reactions, the filter plates are washed 6 times with phosphoric acid (75 mM). […] The top of the plates are sealed with TopSeal-A. Read-out is performed with a TopCount instrument (PerkinElmer Inc.).

Recorded IC50, per entry:
Inquiry: Identify the reported IC50 for the following entry. COc1cc(-c2cnc3cc(-c4cnn(C(C)C(=O)OC(C)(C)C)c4)ccn23)cc(OC)c1C(=O)NCC(F)(F)F (stereo not shown)
Reply text: 0.01 to 10 nM

Inquiry: State its IC50: COc1cc(-n2cnc3cc(-c4cnn(C)c4)ccc32)cc(OC)c1C(=O)N1CC(C)(C)C1
Reply text: 10 to 100 nM

Inquiry: Name the recorded IC50 of the item COc1cc(-n2cnc3cc(-c4cnn(C)c4)ccc32)cc(OC)c1C(=O)N1CC(C)(O)C1 in your answer.
Reply text: 10 to 100 nM

Inquiry: Answer with reported IC50 of COc1cc(-n2cnc3cc(-c4cnn(C)c4)ccc32)cc(OC)c1C(=O)N1C(C)CC1(C)C (stereo not shown)
Reply text: > 500 nM

Inquiry: Give IC50 for COc1cc(-n2cnc3cc(-c4cnn(C)c4)ccc32)cc(OC)c1C(=O)N[C@@H]1C[C@H]1CO
Reply text: 10 to 100 nM

Inquiry: Given COc1cc(-c2cnc3cc(-c4cnn(C)c4)ccn23)cc(OC)c1C(=O)NCC#N , respond with its IC50.
Reply text: 0.01 to 10 nM

Turning now to a further record.
Inquiry: Give the reported value of IC50 for this record: COc1cc(-n2cnc3cc(-c4nnc(C)n4C)ccc32)cc(OC)c1C(=O)NCC(F)(F)F
Reply text: > 500 nM
